Value source: patent US20110217237A1

testedOn: T1, human DLL4 extracellular domain (human, UniProt Q9NR61 27-529)
T1 construct: purified recombinant ECD; biotin-labelled or 6xHis-tagged depending on the assay; also called huDLL4 ECD; hu DLL4 ECD
test: SPR (Biacore)
pKd: −log10 of the molar value.
experimentalReadout: pKd

{"binder": "14G1 rat anti-DLL4 monoclonal antibody (antibody, rat IgG2a, V domains shown, rat IgG2a/K hybridoma mAb; also called MC13-14G1.1B4) VH: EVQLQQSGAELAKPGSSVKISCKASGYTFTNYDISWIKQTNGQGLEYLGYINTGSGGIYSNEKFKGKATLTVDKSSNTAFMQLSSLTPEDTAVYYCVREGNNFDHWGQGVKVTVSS VL: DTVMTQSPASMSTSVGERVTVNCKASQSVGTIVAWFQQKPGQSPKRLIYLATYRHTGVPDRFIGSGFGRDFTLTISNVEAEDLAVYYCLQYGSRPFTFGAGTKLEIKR", "quantitativeResult": 8.14}
